Each recorded value in this set is attributed to patent US20120219562A1.

Entries and their koff values follow.
TESTED TARGET: T1, human interleukin 12 (human, UniProt P29459 23-219; P29460 23-328)
T1 construct: heterodimer of p35 and p40 linked by a disulfide bridge; also called hIL-12; IL-12
T1 sequence (looked up) 1: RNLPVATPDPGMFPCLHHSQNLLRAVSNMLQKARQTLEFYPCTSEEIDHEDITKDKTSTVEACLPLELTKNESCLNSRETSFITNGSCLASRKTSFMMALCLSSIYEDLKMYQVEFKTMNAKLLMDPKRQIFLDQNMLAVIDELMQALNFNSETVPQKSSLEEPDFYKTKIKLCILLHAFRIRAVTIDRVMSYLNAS
T1 sequence (looked up) 2: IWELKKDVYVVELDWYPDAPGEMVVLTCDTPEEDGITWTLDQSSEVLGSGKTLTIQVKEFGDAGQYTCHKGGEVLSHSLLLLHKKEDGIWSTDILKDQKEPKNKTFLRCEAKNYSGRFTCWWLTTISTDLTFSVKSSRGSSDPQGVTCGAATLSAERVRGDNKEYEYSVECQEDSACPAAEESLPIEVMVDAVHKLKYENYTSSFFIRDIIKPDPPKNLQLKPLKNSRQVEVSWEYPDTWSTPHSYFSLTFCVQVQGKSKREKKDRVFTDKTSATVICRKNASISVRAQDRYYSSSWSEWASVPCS
EXPERIMENTAL DETAILS: SPR (BIAcore)
# output: bare number, implied unit s⁻¹

- M2 D2 (antibody, V domains shown) VH: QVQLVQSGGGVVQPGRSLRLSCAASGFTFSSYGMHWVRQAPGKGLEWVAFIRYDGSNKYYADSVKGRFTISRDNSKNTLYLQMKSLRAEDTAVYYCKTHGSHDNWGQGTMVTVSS VL: SYVLTQPPSVSGTPGQRVTISCSGGRSNIGSNTVKWYQQLPGTAPKLLIYGNDQRPSGVPDRFSGSKSGTSASLAITGVQAEDEADYYCQSYDIRSTGSRVFGTGTKVTVLG: 0.0385

// below: koff requested for another binder
In: I'd like to know its koff. The binder in question is M2 B1 (antibody, V domains shown) VH: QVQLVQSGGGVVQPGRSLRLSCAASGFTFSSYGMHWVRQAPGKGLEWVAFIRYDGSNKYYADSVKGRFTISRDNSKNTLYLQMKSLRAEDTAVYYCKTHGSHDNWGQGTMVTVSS VL: SYVLTQPPSVSGTPGQRVTISCSGGRSNIGSNTVKWYQQLPGTAPKLLIYGNDQRPSGVPDRFSGSKSGTSASLAITGVQAEDEADYYCQSYDSGLTGSRVFGTGTKVTVLG
Out: 0.00797
